biological target: SARM1 (Homo sapiens); construct: AviTag […]; made in house; host or cells: NRK1-HEK293T cells, transiently transfected; the clarified sonicated lysate was used without purification; experiment: ARM-SAM-TIR SARM1 IC50 assay (NADase activity, NAD+ cleavage); assay type: biochemical; details: ARM-SAM-TIR lysate 5 μg/mL from NRK1-HEK293T cells; 2 h pre-incubation with compound, 5 μM NAD+, 2 hr room temperature; NAD+ and ADPR by RapidFire mass spectrometry; read-out: SARM1 IC50
Sequence (Q6SZW1 with tags, fused parts or gaps): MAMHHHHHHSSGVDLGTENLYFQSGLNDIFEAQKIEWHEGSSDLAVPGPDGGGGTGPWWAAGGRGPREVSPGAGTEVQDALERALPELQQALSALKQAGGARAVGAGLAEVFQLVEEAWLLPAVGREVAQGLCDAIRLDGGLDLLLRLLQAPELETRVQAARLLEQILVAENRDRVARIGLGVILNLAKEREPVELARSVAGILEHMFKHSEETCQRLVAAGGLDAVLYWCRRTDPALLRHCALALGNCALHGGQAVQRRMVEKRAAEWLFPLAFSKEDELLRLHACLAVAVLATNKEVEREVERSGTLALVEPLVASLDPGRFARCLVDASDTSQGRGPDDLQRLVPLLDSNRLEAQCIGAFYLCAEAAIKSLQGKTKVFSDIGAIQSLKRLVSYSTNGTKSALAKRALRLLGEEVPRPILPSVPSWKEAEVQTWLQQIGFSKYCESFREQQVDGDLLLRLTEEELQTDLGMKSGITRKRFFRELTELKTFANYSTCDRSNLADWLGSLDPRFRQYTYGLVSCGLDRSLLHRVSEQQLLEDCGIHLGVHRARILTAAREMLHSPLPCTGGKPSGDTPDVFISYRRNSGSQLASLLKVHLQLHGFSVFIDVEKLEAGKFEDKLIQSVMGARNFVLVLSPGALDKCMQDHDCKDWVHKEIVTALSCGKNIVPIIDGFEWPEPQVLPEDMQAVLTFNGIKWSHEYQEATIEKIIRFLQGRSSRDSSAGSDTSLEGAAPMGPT
Listing of recorded IC50 by entry.

Examples with answers:
>>> data_value("N#Cc1cc(N2CCOCC2C2CC2)nc2ccc(Cl)cc12 (centres unmarked) [Example 131]")
"< 5 µM"
>>> data_value("CO[C@@H]1CCN(c2cc(C#N)c3cc(Cl)ccc3n2)C1 [Example 48]")
"< 5 µM"
>>> data_value("N#Cc1cc(N2CCCC2)nc2cc(F)c(Cl)cc12 [Example 71]")
"< 5 µM"
>>> data_value("Cc1ccc2nc(N(C)C)cc(C#N)c2c1 [Example 19]")
"< 5 µM"
>>> data_value("N#Cc1cc(N2CCCCC2)nc2ccc(Br)cc12 [Example 21]")
"< 5 µM"
>>> data_value("N#Cc1cc(N2CCC(C(=O)NCC3CC3)CC2)nc2ccc(Br)cc12 [Example 105]")
"5 to 15 µM"
>>> data_value("CN(C)C(=O)NCCNc1cc(C#N)c2cc(Cl)ccc2n1 [Example 41]")
"15 to 30 µM"
>>> data_value("N#Cc1cc(NC2CCCN(C(N)=O)C2)nc2ccc(Cl)cc12 (centres unmarked) [Example 37]")
"< 5 µM"

[in] // IC50 lookup, key: CN(C)C(=O)C1CCN(c2cc(C#N)c3cc(Cl)ccc3n2)C1 (centres unmarked) [Example 69]
[out] < 5 µM

[in] What about this molecule? C[C@]1(NS(C)(=O)=O)CCCN(c2cc(C#N)c3cc(Br)ccc3n2)C1 [Example 120]
[out] < 5 µM
